biological target: Ubc9 (Homo sapiens); assay: MST, t-CSM binding to NT-647 labeled Ubc9
Ends that are not written are not given here.
READOUT_TYPE: Kd (nM)
Supply the numeric figure in nM, leaving out any unit text.

Any idea what Kd was measured for YGRKKRRQRRRGKMDENQ [t-CSM] ? 400
